run-description: Evaluation of dissolution stability (content change on storage in dissolved state)
Type: physicochemical
measurement-conditions: 1 mg/1 ml dissolved state, 40° C. and RH 75%, day 1
Primed or numbered codes have the meaning given here. Where no end group is shown, it is not given here. [ ]: non-standard residue; d: D form. Asu′ = aspartimide (aminosuccinimide); Hyp = O=C(O)[C@@H]1C[C@@H](O)CN1; Aib = CC(C)(N)C(=O)O
quantity-kind: Day 1 content (%)
Expressed in %, but write only the number.

Hyp-Gly-Gln-Asu-Gly-Leu-Ala ([Hyp]GQ[Asu′]GLA) [Example 102]; 90.18
QEGLAG [Example 70]; 90.84

Hyp-Gly-Gln-Asp-Gly-Leu-Ala-Gly ([Hyp]GQDGLAG) [Example 15] yielded Day 1 content (%) of 91.06

According to the records, this substance Hyp-Gly-Gln-Asp-Ala-Leu-Ala ([Hyp]GQDALA) [Example 39] displays Day 1 content (%) of 91.76

// Day 1 content (%) value for Hyp-Ala-Gln-Asp-Gly ([Hyp]AQDG) [Example 73] : 89.07

Just so you know, measured Day 1 content (%) for Hyp-Gly-Gln-Asp-Aib ([Hyp]GQD[Aib]) [Example 85] came out at 92.08

Quick note, Day 1 content (%) for PGQDGLA [Example 78] landed at 92.18

For this substance ( Hyp-Leu-Gln-Asp-Gly ([Hyp]LQDG) [Example 75] ), measured Day 1 content (%) is 91.10

###

run-description: Evaluation of dissolution stability (content change on storage in dissolved state)
Format: physicochemical
measurement-conditions: 1 mg/1 ml dissolved state, 40° C. and RH 75%, day 1
*1 amine or outer side, *2 acyl side, *3 side chain or, on linkers, in order; H or OH if unused. Where no end group is shown, it is not given here. [ ]: non-standard residue; d: D form. Pro(trans-4-NH2) = O=C([C@@H]1C[C@@H](N[*:3])CN1[*:1])[*:2]; Pro(cis-4-F) = O=C(O)[C@@H]1C[C@H](F)CN1; Hyp = O=C(O)[C@@H]1C[C@@H](O)CN1
quantity-kind: Day 1 content (%)
// note: answer is a bare numeric in %

Hyp-Gly-Gln-Leu-Val-Leu-Ala ([Hyp]GQLVLA) [Example 97]; 95.01
Hyp-Gly-Gln-Leu-Leu ([Hyp]GQLL) [Example 121]; 99.29
trans-4NH2-Pro-Gly-Gln-Asp-Gly-Leu ([Pro(trans-4-NH2)]GQDGL) [Example 47]; 84.03
Hyp-Gly-Gln-Asp-Val-Leu-Ala-Gly ([Hyp]GQDVLAG) [Example 24]; 96.14

Per the records, this substance ( cis-4F Pro-Gly-Gln-Asp-Gly-Leu-Ala ([Pro(cis-4-F)]GQDGLA) [Example 51] ) has Day 1 content (%) equal to 83.35

###

The following substances are shown together with reported Initial content (%) values.
run-description: Evaluation of dissolution stability (content change on storage in dissolved state)
Format: physicochemical
measurement-conditions: 1 mg/1 ml dissolved state, 40° C. and RH 75%, initial
Where no end group is shown, it is not given here. [ ]: non-standard residue; d: D form. Pro(cis-4-F) = O=C(O)[C@@H]1C[C@H](F)CN1; Hyp = O=C(O)[C@@H]1C[C@@H](O)CN1
Report as a plain number; the unit % is understood.

Here is how some substances turned out for Initial content (%).
Hyp-Gly-Gln-Asn-Gly-Leu ([Hyp]GQNGL) [Example 81]; 95.87
Hyp-Gly-Gln-Asp-Leu-Leu-Ala ([Hyp]GQDLLA) [Example 38]; 97.06
Hyp-Gly-Gln-Glu-Val-Leu ([Hyp]GQEVL) [Example 89]; 99.57
cis-4F-Pro-Gly-Gln-Asp-Gly ([Pro(cis-4-F)]GQDG) [Example 41]; 96.95
Hyp-Gly-Gln-Asp-Val-Leu-Ala-Gly ([Hyp]GQDVLAG) [Example 24]; 96.57

// sample Hyp-Gly-Gln-Leu-Val ([Hyp]GQLV) [Example 95] , its Initial content (%) was 98.64

Initial content (%) recorded for this substance, Hyp-Gly-Gln-Asp-Gly-Leu (isopropyl ester) [Example 107] , is 87.55

Initial content (%) in this record for Hyp-Gly-Gln-Leu-Gly-Leu-Ala-Gly ([Hyp]GQLGLAG) [Example 17] : 96.55

###

run-description: Evaluation of dissolution stability (content change on storage in dissolved state)
Type: physicochemical
measurement-conditions: 1 mg/1 ml dissolved state, 40° C. and RH 75%, day 3
Primed or numbered codes have the meaning given here. Where no end group is shown, it is not given here. [ ]: non-standard residue; d: D form. The star is where a group is joined. Pro(4,4-F2) = O=C(O)[C@@H]1CC(F)(F)CN1; Pro(4,4-Me2) = CC1(C)CN[C@H](C(=O)O)C1; Asu′ = aspartimide (aminosuccinimide); Hyp = O=C(O)[C@@H]1C[C@@H](O)CN1; Aib = CC(C)(N)C(=O)O; OiPr = CC(C)O*
quantity-kind: Day 3 content (%)
The answer is to be given in %; state only the numeric part.

Examples with answers:
Hyp-Gly-Gln-Glu-Aib-Leu-Ala ([Hyp]GQE[Aib]LA) [Example 92]; 96.92
Gln-Asu-Gly-Leu-Ala-Gly-Pro-Lys (Q[Asu′]GLAGPK) [Example 104]; 93.78
4,4-difluoro-Pro-Gly-Gln-Asp-Gly-Leu ([Pro(4,4-F2)]GQDGL) [Example 48]; 76.53

Recorded result, Hyp-Gly-Gln-Asp-Gly-Leu-Ala (isopropyl ester) ([Hyp]GQDGLA-OiPr) [Example 108] , Day 3 content (%): 62.81

In plain terms, Hyp-Gly-Gln-Asp-Gly-Leu ([Hyp]GQDGL) [Example 11] has a documented Day 3 content (%) of 81.21

Value of Day 3 content (%) reported for the substance 4,4-dimethyl Pro-Gly-Gln-Asp-Gly ([Pro(4,4-Me2)]GQDG) [Example 55] is 90.29

###

run-description: Evaluation of dissolution stability (content change on storage in dissolved state)
Type: physicochemical
measurement-conditions: 1 mg/1 ml dissolved state, 40° C. and RH 75%, day 7
Where no end group is shown, it is not given here. [ ]: non-standard residue; d: D form. Pro(4,4-F2) = O=C(O)[C@@H]1CC(F)(F)CN1; Hyp = O=C(O)[C@@H]1C[C@@H](O)CN1
This listing pairs substances with measured Day 7 content (%).
State the value, then name its unit.

Below: 3 substances and their reported Day 7 content (%).
4,4-difluoro-Pro-Gly-Gln-Asp-Gly-Leu-Ala ([Pro(4,4-F2)]GQDGLA) [Example 53]; 62.88%
Hyp-Gly-Gln-Asp-Gly-Leu-Ala ([Hyp]GQDGLA) [Example 12]; 58.75%
Hyp-Gly-Gln-Asp-Leu ([Hyp]GQDL) [Example 32]; 90.50%

Item: Hyp-Gly-Gln-Asp-Gly-D Leu-Ala ([Hyp]GQDG[dL]A) [Example 65] | Day 7 content (%): 75.40%

###

# Day 7 content (%) values compiled below
run-description: Evaluation of dissolution stability (content change on storage in dissolved state)
Type: physicochemical
measurement-conditions: 1 mg/1 ml dissolved state, 40° C. and RH 75%, day 7
Where no end group is shown, it is not given here. [ ]: non-standard residue; d: D form. Hyp = O=C(O)[C@@H]1C[C@@H](O)CN1

Hyp-Gly-Gln-Asp-Gly-D Leu ([Hyp]GQDG[dL]) [Example 62]; 70.41%
Pro-Gly-Gln-Asp-Gly (PGQDG) [Example 76]; 69.13%

With those in mind, consider the next substance.
Memo: Hyp-Gly-Gln-Asp-Gly (isopropyl ester) [Example 106] , reported Day 7 content (%): 68.25%

###

run-description: Evaluation of dissolution stability (content change on storage in dissolved state)
Assay type: physicochemical
measurement-conditions: 1 mg/1 ml dissolved state, 40° C. and RH 75%, day 7
Where no end group is shown, it is not given here. [ ]: non-standard residue; d: D form. The star is where a group is joined. Hyp = O=C(O)[C@@H]1C[C@@H](O)CN1; OiPr = CC(C)O*
I'd appreciate it if you marked entries true (1) when Day 7 content (%) is lower than 80% and false (0) when it is not.

These solved cases illustrate the format of a correct answer.
Hyp-Gly-Gln-Asu-Gly-Leu-Ala (isopropyl ester) [Example 113]; true (1)
Hyp-Gly-Gln-D Asp-Gly-Leu ([Hyp]GQ[dD]GL) [Example 61]; true (1)
Hyp-Gly-Gln-Asp-Val-Leu [Example 22] ([Hyp]GQDVL); false (0)
Hyp-Gly-Gln-Glu-Val ([Hyp]GQEV) [Example 91]; false (0)

Field: below-cutoff. Rule: recorded Day 7 content (%) strictly less than 80%. Subject: QDGLAG [Example 30]
false (0)

Lab log: compare recorded Day 7 content (%) with 80%; is it strictly lower for Hyp-Gly-Gln-Glu-Phenyl Gly-Leu-Ala [Example 94] ?
false (0)

State whether 80% exceeds Day 7 content (%) recorded for Hyp-Gly-Gln-Asp (isopropyl ester)-Gly ([Hyp]GQD(OiPr)G) [Example 115] .
true (1)
